Target: T1, CEACAM1 (Sino Biological) (human, UniProt P13688 35-428, limits assumed)
T1 construct: may be the same as CEACAM1-HIS; also called hCEACAM1; biotinylated soluble CEACAM1
T1 sequence: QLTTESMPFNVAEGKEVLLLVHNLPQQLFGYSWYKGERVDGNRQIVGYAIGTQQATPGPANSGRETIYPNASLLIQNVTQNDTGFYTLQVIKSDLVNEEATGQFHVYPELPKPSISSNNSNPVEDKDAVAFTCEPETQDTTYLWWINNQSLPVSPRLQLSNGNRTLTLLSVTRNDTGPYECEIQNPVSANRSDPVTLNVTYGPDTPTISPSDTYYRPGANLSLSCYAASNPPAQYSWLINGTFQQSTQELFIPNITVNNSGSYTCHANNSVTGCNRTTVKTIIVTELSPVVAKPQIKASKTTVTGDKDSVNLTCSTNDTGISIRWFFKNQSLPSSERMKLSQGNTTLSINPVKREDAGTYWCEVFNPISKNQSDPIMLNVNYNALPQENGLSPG
Assay Notes: SPR single-cycle
Reported Endpoint: fold better than Parent (KD)
Note: state the figure and append the unit.

He4/L1 (antibody, IgG4, V domains shown, IgG4 S241P, kappa) VH: EVQLLESGGGLVQPGGSLRLSCAASGFSFSDYYLYWVRQAPGKGLEWVATISVGGGQTSYADSVKGRFTISRDNSKNTLYLQMNSLRAEDTAMYYCTRALYYGPAWFAYWGQGTLVTVSS VL: DIVMTQSPDSLAVSLGERATINCKSSQSLLNSANQKNYLAWYQQKPGQPPKLLIYFASTRESGVPDRFSGSGSGTDFTLTISSLQAEDVAVYYCQSHYPFYYTFGGGTKVEIK :: 2.49 fold

With those in mind, consider the next binder.
Asked: fold better than Parent (KD) lookup needed for He17/L19 (antibody, IgG4, V domains shown, IgG4 S241P, kappa) VH: EVQLLESGGGLVQPGGSLRLSCAASGFSFSDYYLYWVRQAPGKGLEWVATISVGGGQTSYADSVKGRFTISRDNSKNTLYLQMNSLRAEDTAMYYCTRARTYGPAWFAYWGQGTLVTVSS VL: DIVMTQSPDSLAVSLGERATINCKSSQSLLNSANQKNYLAWYQQKPGQPPKLLIYFASTRESGVPDRFSGSGSGTDFTLTISSLQAEDVAVYYCQSHIYPNFTFGGGTKVEIK , thanks.
Given back: 1.18 fold
